Reported viability, T/C is given for each of the following molecules.
Test system: 313798-341-R-J2-PDC spheroids, viability;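 also: spheroids exposed to compounds for seven days; 100% = DMSO vehicle control viability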
Experiment: Anticancer human tumor 313798-341-R-J2-PDC patient-derived cervical squamous cell carcinoma cell line growth inhibition [PI3K]
Conditions: second compound 0.1 µM; first compound 10 µM; stronger effect = lower value; spheroids with HUVEC and MSC
Source text: Combinatorial screen of targeted agents with the PI3K inhibitors inavolisib, alpelisib, duvelisib, and copanlisib in multi-cell type tumor spheroids A high-throughput screen of multi-cell type tumor spheroids was designed to identify active combinations of targeted small molecules and PI3K pathway inhibitors. […] Compounds. […] If the clinical Cmax for an agent had not been determined, the highest concentration tested was 10 microM. […]

# molecule, unit.tag, viability, T/C
rows = [
    ("CCCS(=O)(=O)Nc1ccc(F)c(C(=O)c2c[nH]c3ncc(-c4ccc(Cl)cc4)cc23)c1F + CC(Nc1ccc2c(c1)OCCn1cc(N3C(=O)OCC3C(F)F)nc1-2)C(N)=O", "%", 9.75),
    ("C#Cc1c(F)ccc2cc(O)cc(-c3ncc4c(N5CC6CCC(C5)N6)nc(OCC56CCCN5CC(F)C6)nc4c3F)c12 (stereo unspecified) + CC(Nc1ncnc2nc[nH]c12)c1cc2cccc(Cl)c2c(=O)n1-c1ccccc1", "%", 102),
    ("CCCS(=O)(=O)Nc1ccc(F)c(C(=O)c2c[nH]c3ncc(-c4ccc(Cl)cc4)cc23)c1F + Cc1nc(NC(=O)N2CCCC2C(N)=O)sc1-c1ccnc(C(C)(C)C(F)(F)F)c1", "%", 8.86),
    ("C#Cc1c(F)ccc2cc(O)cc(-c3ncc4c(N5CC6CCC(C5)N6)nc(OCC56CCCN5CC(F)C6)nc4c3F)c12 (stereo unspecified) + CC(Nc1ccc2c(c1)OCCn1cc(N3C(=O)OCC3C(F)F)nc1-2)C(N)=O", "%", 97),
    ("C#Cc1c(F)ccc2cc(O)cc(-c3ncc4c(N5CC6CCC(C5)N6)nc(OCC56CCCN5CC(F)C6)nc4c3F)c12 (stereo unspecified) + Cc1nc(NC(=O)N2CCCC2C(N)=O)sc1-c1ccnc(C(C)(C)C(F)(F)F)c1", "%", 96.5),
    ("CC1(C)CCC(CN2CCN(c3ccc(C(=O)NS(=O)(=O)c4ccc(NCC5CCOCC5)c([N+](=O)[O-])c4)c(Oc4cnc5[nH]ccc5c4)c3)CC2)=C(c2ccc(Cl)cc2)C1 + Cc1nc(NC(=O)N2CCCC2C(N)=O)sc1-c1ccnc(C(C)(C)C(F)(F)F)c1", "%", 19.8),
]
